Source listed as ChEMBL document CHEMBL4049455.

# Target Of Assay: B-cell lymphoma 6 protein (Homo sapiens)
# Procedure Summary: Binding affinity to wild-type human biotinylated Avi-tagged BCL6 BTB domain (5 to 129 amino acid residues) expressed in Escherichia coli BL21 (DE3) using 5 % DMSO by SPR analysis
pKd: −log10 of the molar value.

Substance | pKd
Ac-RSEIISTAPSSWVVPPK-OH | 4.92

====

# Target Of Assay: B-cell lymphoma 6 protein (Homo sapiens, UniProt P41182, C67R/C84N/C8Q)
# Procedure Summary: Binding affinity to captured human biotinylated Avi-tagged BCL6 BTB domain (5 to 129 amino acid residues) C8Q/C67R/C84N triple mutant expressed in Escherichia coli BL21 (DE3) by SPR analysis
Quantity Kind: Kd (µM)

Substance | Quantity Kind | Val
Ac-RSEIISTAPSSWVVPPK-OH | Kd | 40
